Tested on: H1 or H9 human embryonic stem cells
assayNotes: Activin A bioassay: differentiation of human embryonic stem cells to definitive endoderm, cell number and SOX17 intensity by high content analysis (96-well, four days)
Format: cell-based
protocolConditions: supernatant concentration 1x, assay dilution 1:20; control = R&D Sys Activin A 100 ng/ml on same plate
Criterion: Sox 17 Intensity % of control strictly under 4%. Met: yes (1). Not met: no (0).

{"molecule": "ACTN7: activin A variant peptide, SEQ ID 8 (protein) GLECDGKVNYCCKKQHFVSFKDIGWNDWIIAPSGYHANSCSGLCPSHIAGTSGSSLSFHSTVINHYRMRGHSPFSQMGSCCIPTKLRPMSMLYYDDGQNIIKKDIQNMIVEECGCS", "assignedClass": "no (0)"}
{"molecule": "ACTN17: activin A variant peptide, SEQ ID 18 (protein) GLECDGKVNYCCKKQDFVSFKDIGWNDWIIAPSGYHANKCGGKCPSHIAGTSGSSLSFHSTVINHYRMRGHSPFSDMGACCVPTKLRPMSMLYYDDGQNIIKKDIQNMIVEECGCS", "assignedClass": "no (0)"}
{"molecule": "ACTN8: activin A variant peptide, SEQ ID 9 (protein) GLECDGKVNYCCKKQDFVSFKDIGWNDWIIAPSGYHANKCSGKCPSHIAGTSGSSLSFHSTVINHYRMRGHSPFSDMGSCCVPTKLRPMSMLYYDDGQNIIKKDIQNMIVEECGCS", "assignedClass": "yes (1)"}
{"molecule": "ACTN16: activin A variant peptide, SEQ ID 17 (protein) GLECDGKVNLCCKKQLFVSFKDIGWNDWIIAPSGYHANHCSGLCPSHIAGTSGSSLSFHSTVINHYRMRGHSPFSQMGACCVPTKLRPMSMLYYDDGQNIIKKDIQNMIVEECGCS", "assignedClass": "no (0)"}
{"molecule": "ACTN63: activin A variant peptide, SEQ ID 64 (protein) GLECDGKVNICCKKQSFSQAKDIGWNDWIIAPSGYHGGGCTGECPSHIAGTSGSSLSFHSTVINHYRMRGHSPFANLKSCCSPTKLRPMSMLYYDDGQNIIKKDIQGMVVEECGCT", "assignedClass": "yes (1)"}
{"molecule": "ACTN39: activin A variant peptide, SEQ ID 40 (protein) GLECDGKVNLCCKKQNFVSFKDIGWNDWIIAPSGYHANECSGLCPSHIAGTSGSSLSFHSTVINHYRMRGHSPFSDMGSCCVPTKLRPMSMLYYDDGQNIIKKDIQNMIVEECGCS", "assignedClass": "yes (1)"}
{"molecule": "ACTN9: activin A variant peptide, SEQ ID 10 (protein) GLECDGKVNYCCKKQDFVSFKDIGWNDWIIAPSGYHANKCTGKCPSHIAGTSGSSLSFHSTVINHYRMRGHSPFADLGACCIPTKLRPMSMLYYDDGQNIIKKDIQNMIVEECGCS", "assignedClass": "yes (1)"}
